Below: a set of entries, each annotated with reported folding stability dG unfold.
experiment: folding stability dG unfold (combined trypsin and chymotrypsin); higher = more stable
Quantity Measured: folding stability dG unfold (kcal/mol)

{"Query Sequence": "SAGMIEINNVTPNYVMIKIWNPDNGKKWEIPIQYERDNGKPYSKDKALEEIKDIAKEFYPDFDIEVEPVSAG [r5_293_TrROS]", "Quantity Measured": "folding stability dG unfold", "Inequality Symbol": "=", "Measured Number": 0.41}
{"Query Sequence": "SAGGSAGGSAGGSSARVPFPATGAVLEVRVTPDGRPRVRVFNPATGEVVEFPPGAEVGVSAGGSAGGSAGGS [r4_158_TrMRF]", "Quantity Measured": "folding stability dG unfold", "Inequality Symbol": "=", "Measured Number": 0.0259}
{"Query Sequence": "SAGGSAGGSAGSYTVTPITLKLPDGTEVDAVLTTDPAGNVTLTLTGDSPLSTLTFPASTLSAGGSAGGSAGG [r11_327_JUSTAS]", "Quantity Measured": "folding stability dG unfold", "Inequality Symbol": "=", "Measured Number": 1.18}
{"Query Sequence": "SAGGSATLTLPEDVVKEVFTAKVGDKEYRPVVFRSPDDEWVLVLVLRRDPNGNTSAVAALLPKDAVSAGGSA [r15_986_TrMRF]", "Quantity Measured": "folding stability dG unfold", "Inequality Symbol": "=", "Measured Number": 1.64}
{"Query Sequence": "SAGGSAMLVFKITIKNPETNETIELEIEAETLEEAKEAIEKLIAELTGKEPTEIKIEVVEIKEEDLSAGGSA [r15_670_TrROS_Hall]", "Quantity Measured": "folding stability dG unfold", "Inequality Symbol": "=", "Measured Number": 4.42}
{"Query Sequence": "SAGGSAGGSAGGGSMTTTTLTFTVPPDVTPEEVRAALEAAGYGDVAVTREGNTWTVTVTSAGGSAGGSAGGS [r10_868_JUSTAS]", "Quantity Measured": "folding stability dG unfold", "Inequality Symbol": "=", "Measured Number": 2.4}
{"Query Sequence": "SAGGSAGGSAGGKVKIVSVSYDPETGKLTVEVEIPNPKKLLTVTTDNPNIPAEEIAKKLASAGGSAGGSAGG [r7_833_TrMRF]", "Quantity Measured": "folding stability dG unfold", "Inequality Symbol": "=", "Measured Number": 0.362}
{"Query Sequence": "SAGGSAGGPKEKKWYVMVHITWRDDGKERPRHFMFKSPEQVIEALEEQLPPDNIEIDVAVFPYKSAGGSAGG [r6_114_TrROS]", "Quantity Measured": "folding stability dG unfold", "Inequality Symbol": "=", "Measured Number": 2.33}
{"Query Sequence": "SAGGSAGGMPEYRVLDIEIETRPDMTPEEAVEEIRKALEPLGAIRVEAEPLPDGRIRVRVVLPESAGGSAGG [r6_881_TrMRF]", "Quantity Measured": "folding stability dG unfold", "Inequality Symbol": "=", "Measured Number": 3.27}
{"Query Sequence": "SAGGSAGGSAGGPTVTLTLEVPVEDAEELAKALEDAGKARVTKVERNEDGFLRITVEFEDSAGGSAGGSAGG [r7_589_TrROS_Hall]", "Quantity Measured": "folding stability dG unfold", "Inequality Symbol": "=", "Measured Number": 1.06}
{"Query Sequence": "SAGGSAGGSAGGSKDITITHEHNPNGWYRVKIRFPDNGKKIEIWVPAGRSVEEALDWLFSAGGSAGGSAGGS [r4_393_TrROS]", "Quantity Measured": "folding stability dG unfold", "Inequality Symbol": "=", "Measured Number": 3.25}
{"Query Sequence": "SAGGSAPPKRRERIIQIPIKMKPGQTADEMVDNIADWIMDLLPPDMRIEIEVEYHPENGWIMVKIESAGGSA [r15_739_TrROS]", "Quantity Measured": "folding stability dG unfold", "Inequality Symbol": "=", "Measured Number": 1.63}
{"Query Sequence": "SAGGSAGGSAGGDAPNTTVTVTLKAEVYYDPSTGALVVKVTAYFPATNTTVTLEFTFPLSAGGSAGGSAGGS [r10_187_TrMRF]", "Quantity Measured": "folding stability dG unfold", "Inequality Symbol": "=", "Measured Number": 4.76}
{"Query Sequence": "SAGGSAGGMVTFDTPEELEALIEELLARHPRDVPVDVTIESEDSRYTIKVAPERVEEISESEGSSAGGSAGG [r6_289_JUSTAS]", "Quantity Measured": "folding stability dG unfold", "Inequality Symbol": "<", "Measured Number": -1}

###

assay: folding stability dG unfold from trypsin proteolysis; higher = more stable
Quantity Measured: folding stability dG unfold (kcal/mol)

{"Query Sequence": "SAGGSADRVTVTVTVRVRDPATGEWREVTETVTVPAPLTLEITLPPGWRLRLTLEDGELRLEVEPESAGGSA [r2_109_TrROS_Hall]", "Quantity Measured": "folding stability dG unfold", "Measured Number": 3.1}
{"Query Sequence": "SAMTLTLTVPPGAKVRVRITNENGETTEIEVEPGETVTITLPAGSTVRVEVEVVDPDGRKRTETFTLKPSAG [r14_568_TrROS_Hall]", "Quantity Measured": "folding stability dG unfold", "Measured Number": 3.46}
{"Query Sequence": "SAMEIVIEFESPEEAEKAIKEYVEKKGLKAVEIKMEFEPKWVEEKTPTGVKVTKEKYVAKVTVVTSKELSAG [r14_773_JUSTAS]", "Quantity Measured": "folding stability dG unfold", "Measured Number": 0.457}
{"Query Sequence": "SALPNLKIEITLNEDGTITITVTANGEVIATATLTVTLPPPPVEKEVLDANGNKRTVRYDAKTGKAEVFDSA [r9_343_TrROS_Hall]", "Quantity Measured": "folding stability dG unfold", "Measured Number": 0.106}
{"Query Sequence": "SAGVVVERTVTRTVPKDSATKEKIIEEIKASMPGMKVKEVEVLSETPLPDGSIVVTVKLTIERPPDVLESAG [r5_682_JUSTAS]", "Quantity Measured": "folding stability dG unfold", "Measured Number": 3.23}
{"Query Sequence": "SAGMPEVKLLPKPDGSLVLVVVFEDKAIIIEFPPDGEGKIYIIDLKNNKITEIPFPSEDPLKAIKEALSSAG [r5_674_TrMRF]", "Quantity Measured": "folding stability dG unfold", "Measured Number": 2.35}
{"Query Sequence": "SMKTKTVTLDLSPEDPEAARAAVEAAIAEARAADPDTEVTVTVTISPEHPELLAEIEALAAERGVSLVLGSA [r9_1202_JUSTAS]", "Quantity Measured": "folding stability dG unfold", "Measured Number": 2.74}
{"Query Sequence": "SAGGMVITIPTTTSSIEEAIEAVKKKVEEEGYKVTEIKDIKVSTDPKTGKINVTATVIVEKLPKEEKSAGGS [r16_155_JUSTAS]", "Quantity Measured": "folding stability dG unfold", "Measured Number": 0.99}
{"Query Sequence": "SAGGSAGGSAMKPVPFEVLSVSYPVLPNGTRIRLVEIKFPETGEVKWIELSPDDPVIKALLSAGGSAGGSAG [r3_57_JUSTAS]", "Quantity Measured": "folding stability dG unfold", "Measured Number": 2.27}
{"Query Sequence": "SAPEVFRFTIPRYRDDYEFDGDGYPVLKERKPVAPLEVEAVVFEDGTVRVRVGDEVREFPLGVSPEELFSAG [r14_909_TrMRF]", "Quantity Measured": "folding stability dG unfold", "Measured Number": 0.601}
{"Query Sequence": "SAGGSAGGSAGGELVLKIKVKPGEKVKLKLKLFDKNGKLVEEFEVEVEVVKEGDTLYIRLSAGGSAGGSAGG [r7_63_TrROS_Hall]", "Quantity Measured": "folding stability dG unfold", "Measured Number": 2.69}
{"Query Sequence": "SAGGSAKITIEYDPETGTITIKVELTNEDNGKKVTKEYEIKVDGKLIRIKIDANTGEIVEIEVLPPSAGGSA [r2_331_TrROS_Hall]", "Quantity Measured": "folding stability dG unfold", "Measured Number": 3.52}
{"Query Sequence": "SAGGSPSTVVPTLLTLEIVKKDEKGNETSETIPVLVEDSPEEARERLIEEIEKKYGAEVVKVTVKPESAGGS [r16_511_JUSTAS]", "Quantity Measured": "folding stability dG unfold", "Measured Number": -0.576}
{"Query Sequence": "SMKPGAEITIEPFPDGMYKITLPDGRERIFSPNGIAIEITPNKIKIEMFHPGKPIMEMEVEIPPPDPNDPSA [r9_901_TrROS]", "Quantity Measured": "folding stability dG unfold", "Measured Number": 0.912}

###

assay: folding stability dG unfold from trypsin proteolysis; higher = more stable
Assign YES whenever folding stability dG unfold does not fall below 1 kcal/mol; assign NO whenever it does.

{"Query Sequence": "SAGSASSIKPISSTLDVRTDPETGKPVKATVYTYVLPSDGSSKQVPVPLSKKEPINLSPSDSYVTETRESAG [r5_950_JUSTAS]", "Assigned Category": "NO"}
{"Query Sequence": "SAGGSAGGSAGGSDNKAILGDVPIKFYDKNGKPVITAKIGYFPDGRVVIYFPDGSKIEASAGGSAGGSAGGS [r10_972_TrMRF]", "Assigned Category": "YES"}
{"Query Sequence": "SAGGSAGGSKVLIIEPEENKELAEKIAKELKEKGELGEVEIKTFSSPEEAKEYAKNYDIVITGSAGGSAGGS [r12_679_TrMRF]", "Assigned Category": "NO"}
{"Query Sequence": "SAGGMTIVEKDGKLVLKITVTVPPGTTVEELKNALKELFGVEEVKVVKIEKNENGEITITVEAVFPKSAGGS [r16_234_TrROS_Hall]", "Assigned Category": "YES"}
{"Query Sequence": "SAGGSAGGKGKLVDEPPIRDPNNGKDVWAFIMDPDGRMEVYDPNEIEEIPLKPGQIMIFTPEDLSAGGSAGG [r6_627_TrROS]", "Assigned Category": "NO"}
{"Query Sequence": "SAGGEVKYEHEGKNPDNGNMYKQEQEVPPVPIPPVIVIPAEDLDEFRELGIPENFKILPGNGWIVITSAGGS [r16_194_TrROS]", "Assigned Category": "NO"}
{"Query Sequence": "SAGGSAGGSPVIAVRVKRIEVTYDAATGRLTVRIEVEVDGKTYTITVPPGAEIKPGDTLLIEPSAGGSAGGS [r20_49_TrROS_Hall]", "Assigned Category": "YES"}
{"Query Sequence": "SAGGSAMKLPKNVKITITKNKDGTVTITITYPDGKKITITMKIDKNGKLKFTKEQIKKLIKELAKKSAGGSA [r15_780_TrROS_Hall]", "Assigned Category": "YES"}
{"Query Sequence": "SAGGSAGGSAGGSLETRPVLLILKDEEGKPYAVARLEVRELPNGGVEVTVTEIVPAEELSAGGSAGGSAGGS [r4_117_TrMRF]", "Assigned Category": "NO"}
{"Query Sequence": "SAGGAEELAKALADELRKLFPGEEIEVTVELVEVEVEPGQKVTLPDGSTVEVPPGAKVLVLKITVKPSAGGS [r16_357_TrROS_Hall]", "Assigned Category": "YES"}
{"Query Sequence": "SAGGSAGGSAGGSGMTSTTYRLPEGNVVLVETFDPATGTVTLEIRGPPSVERTLTLPVASAGGSAGGSAGGS [r4_443_JUSTAS]", "Assigned Category": "YES"}
{"Query Sequence": "SAGGSMELELEVKNPETGKTYKVKITSFDEETGEVTVEIEDEETGETKTLTFKVEPVELVEEEEEESAGGSA [r2_147_TrROS_Hall]", "Assigned Category": "YES"}
{"Query Sequence": "SAGGSAGGSAGHMVKVKITKSKGGSSLPLEEKEIELDIDEEKLEELKEEAKKKGYTVEIESAGGSAGGSAGG [r17_18_JUSTAS]", "Assigned Category": "NO"}
